melting point: recorded values

For orientation, consider the following solved cases.
>  <molecule>
Fc1ccc(Nc2nc(NC3CCOCC3)nc(OCC(F)(F)F)n2)cc1Cl

>  <melting point>
190 to 191 °C

$$$$
>  <molecule>
COC(=O)c1c(O)ccn1C

>  <melting point>
44 to 46 °C

$$$$
>  <molecule>
CCOC(=O)C1=C(C)NC(C)=C(C(=O)OCC2CC2)C1c1cccc([N+](=O)[O-])c1 (stereo not given)

>  <melting point>
169 to 170 °C

$$$$
>  <molecule>
COc1nc(C(Br)Br)c([N+](=O)[O-])cc1C

>  <melting point>
58.7 to 61.2 °C

$$$$
>  <molecule>
CC1(C)CC(NC=O)CC(C)(C)N1

>  <melting point>
153 °C

$$$$
>  <molecule>
CC(C)(C)NCC(O)COc1ccc2c(=O)cc(-c3ccc(O)c(O)c3)oc2c1 (stereo not given)

>  <melting point>
165 °C

$$$$
>  <molecule>
O=[N+]([O-])c1cc(C(F)(F)F)ccc1NCCO

>  <melting point>
74.9 °C

$$$$
>  <molecule>
CCOC(=O)N1CCC(n2cnc3ccc(-c4nnc(C)o4)cc32)CC1

>  <melting point>
179 to 180 °C

$$$$
>  <molecule>
CN1C(C(=O)Nc2ccccn2)=C(OC2OC(=O)c3ccccc32)c2ccccc2S1(=O)=O (stereo not given)

>  <melting point>
151 to 152 °C

$$$$
>  <molecule>
Cc1cc2c(O)nccc2s1

>  <melting point>
214 to 216 °C

$$$$

Entry under review: `CCOc1ccc(N(C)CCCN)cc1` . Reported melting point?
97 to 98 °C

Next record, please: COc1cc2c(cc1Br)[C@@H](O)[C@H](Br)C(C)(C)O2 (relative stereo)
58 to 59 °C

Also, CCCCCCCC1=CC(=O)N(Cc2ccccc2)C1(O)CBr (stereo not given) please.
94 to 96 °C

Note, next up: `COc1ccc(Cc2cnc(N)nc2N)c(OC)c1O`
246 to 248 °C

Note, next up: `Nc1cnc2c(F)c(F)ccc2c1`
161 °C

Try the molecule CNCC(O)c1ccc(F)cc1 (stereo not given)
77 to 78.8 °C

Quick one: `COc1ccc(C2=NN(C3CCN(CC(N)=O)CC3)C(=O)CC2)cc1OC`
180 to 182 °C

Next molecule up: `CS(=O)(=O)Nc1cccc([N+](=O)[O-])c1`
237 °C

Try the molecule `COc1cccc(COc2ccc3c(c2)C=C(C(=O)O)CCS3(=O)=O)c1`
220 to 222 °C

Okay, and `CCNC(=O)c1c(C(F)(F)F)cccc1[Si](C)(C)C` ?
134 to 135 °C

* * *

quantity.name: melting point

>  <compound>
COC(=O)COc1cc(C(=O)N2CCOCC2)ccc1[N+](=O)[O-]

>  <melting point>
140 to 142 °C

$$$$
>  <compound>
Nc1ncnc2c1ncn2C1CC(O)(C(=O)c2cccc(C(F)(F)F)c2)C(COC(=O)c2cccc(C(F)(F)F)c2)O1 (centres undefined)

>  <melting point>
160 °C

$$$$
>  <compound>
O=C(c1cc(-c2ccccc2)c(=O)n2c1-c1ccccc1C2)N1CCOCC1

>  <melting point>
262 to 266 °C

$$$$
>  <compound>
O=C(O)C1=Cc2cc(C(=O)c3ccc(O)cc3)ccc2OC1C(F)(F)F (centres undefined)

>  <melting point>
234 to 240 °C

$$$$
>  <compound>
CC(=O)NC(C)C(=O)NCC(=O)O (racemic)

>  <melting point>
79 to 82 °C

$$$$
>  <compound>
CCCCCC(=O)c1c(CBr)n(C(=O)OC)c(=O)n1C(=O)OC

>  <melting point>
71 to 73 °C

$$$$

Data request, read-out melting point, for `CCOC(=O)c1ccc(Cc2nc3n(-c4c(Cl)cc(Cl)cc4Cl)[nH]c(C(C)C)c-3c(=O)n2)cc1`
233 to 235 °C

Same read-out for O=C1c2ccccc2C(=O)N1C(O)C1OC(n2ccc(=O)[nH]c2=O)CC1O (centres undefined) ?
241 to 242 °C

Cool, now `N#Cc1cc(Cl)[nH]c1-c1oc2ccccc2c1Cl`
224 to 226 °C

Next entry: `Nc1nc(S(=O)(=O)Cl)nn1C(=O)Oc1ccccc1`
164 °C

Please answer likewise for `O=c1c(N2CCCCC2)nc2ccccc2n1-c1ccc(Cl)cc1`
184 to 185 °C
